# credit: patent US9149038B2

# Test system: Key Broadleaf Weed and Crop Species
# PROTOCOL: Post-Emergent Test II: postemergent herbicidal activity, visual rating after 14 d (Table 7)
# Type: in vivo
# APPLIED CONDITIONS: post-emergence, 336 h, velvetleaf (Abutilon theophrasti), 70 g ai/ha, read-out: Visual Growth Reduction (%) 14 Days After Application ABUTH
# Method: Herbicidal evaluations were made visually on a scale of 0 to 100 where 0 represents no activity and 100 represents complete plant death. […] A weighed amount, determined by the highest rate to be tested, of each test compound was placed in a 25 mL glass vial and was dissolved in 4 mL of a 97:3 v/v mixture of acetone and DMSO to obtain concentrated stock solutions. […]
Kindly state pest or weed control at 70 g/ha for each of the entries shown.

Solved entries (count: 5):
[
  {
    "MOLECULAR STRING": "COc1c(N)nc(-c2cc3c(cc2F)OC(F)(F)O3)nc1C(=O)O",
    "RESULT": "0 to 29%"
  },
  {
    "MOLECULAR STRING": "COC(=O)c1nc(-c2ccc3c(c2)OC(F)(F)O3)c(C)c(N)c1Cl",
    "RESULT": "0 to 29%"
  },
  {
    "MOLECULAR STRING": "COC(=O)c1nc(-c2ccc3c(c2F)OC(F)(F)O3)c(Cl)c(N)c1Cl",
    "RESULT": "0 to 29%"
  },
  {
    "MOLECULAR STRING": "COC(=O)c1nc(-c2cc3c(cc2F)OCO3)c(F)c(N)c1Cl",
    "RESULT": "60 to 74%"
  },
  {
    "MOLECULAR STRING": "COC(=O)c1nc(-c2ccc3c(c2OC)OC(F)(F)O3)cc(N)c1Cl",
    "RESULT": "30 to 44%"
  }
]

Record pest or weed control at 70 g/ha for all entries; do not skip any.
1. Nc1c(F)c(-c2cccc3c2OCO3)nc(C(=O)O)c1Cl
2. COC(=O)c1nc(-c2ccc3c(c2)OC(F)(F)O3)nc(N)c1OC
3. Nc1cc(-c2cc3c(cc2F)OC(F)(F)O3)nc(C(=O)O)c1Cl

// result
1: 95 to 100%; 2: 85 to 94%; 3: 85 to 94%

Sample `COC(=O)c1nc(-c2ccc(F)c3c2OC(F)(F)O3)c(F)c(N)c1Cl` , system: Key Broadleaf Weed and Crop Species. Its pest or weed control at 70 g/ha is 75 to 84%
